Assay: A CellTox Green Cytotoxicity Assay to monitor cytotoxicity in HEK293 cells - 32 hour (AID 1224881); further: potency means the concentration at half of the fitted maximal effect; nearly all actives have a fitted effect of over 40% in size
Conditions: CellTox Green fluorescence; series mostly up to 76.8 µM
Records with an inconclusive call do not appear. Activity calls are given as the source filed them. The call rests on the fitted dose curve; in most records, active means well fitted activation curve with a large enough effect in the repeat runs; inconclusive means weak or mixed curves; inactive means flat fitted curve, though single readings scatter.
Each record here notes measured Potency.
metric: Potency

compound	valueMeasured
Cc1ccc(C=O)s1	43.6 µM (active)
CCCCCCCCCCCCOCCOS(=O)(=O)O	24.5 µM (active)
CCCCCCCCc1ccc(S(=O)(=O)O)cc1	54.5 µM (active)
C=CC(C)(O)CC/C=C(\C)CCC=C(C)C (centres undefined)	49 µM (active)

---

Test: qHTS assay to identify small molecule agonists of the peroxisome proliferator-activated receptor delta (PPARd) signaling pathway - cell viability counter screen (AID 743211); further: nearly all actives have a fitted effect of over 55% in size
Settings: PPARd-bla HEK293H viability, CellTiter-Glo luminescence, 17 h; series mostly up to 62.6 µM
Records with an inconclusive call do not appear. Activity calls are given as the source filed them. Calls follow the shape of the dose curve; as a rule, active = well fitted cell-killing curve with a large enough effect in the repeat runs; inconclusive = weak or mixed curves; inactive = no such curve, though single readings can be large or run the other way.
Labels: active, inactive

compound	category
COc1cc(C)ccc1C(C)C	inactive
CCN(CC)C(=O)N(CC)CC	inactive
CCCc1c2oc(C(=O)O)cc(=O)c2cc2c(=O)cc(C(=O)O)n(CC)c12	inactive
C1CCOC1	inactive
CC1(O)CSC(C)(O)CS1 (stereo not drawn)	inactive
CCN(CCCc1ccccc1)CCCc1ccccc1	inactive
NC1=NCC2c3ccccc3Cc3ccccc3N12 (stereo not drawn)	inactive
NCCC(O)(P(=O)(O)O)P(=O)(O)O	inactive
O=c1[nH]cnc2c1ncn2[C@@H]1O[C@H](CO)[C@@H](O)[C@H]1O	inactive
CC(C)C(=O)OCC(C)(C)C(O)C(C)C (stereo not drawn)	inactive
C=O	inactive
C[C@@H]1CN(c2c(F)c(F)c3c(=O)c(C(=O)O)cn(C4CC4)c3c2F)C[C@H](C)N1	inactive
Cc1c(N)cccc1N	inactive
O=c1[nH]c(=O)n([C@H]2C[C@H](O)[C@@H](CO)O2)cc1C(F)(F)F	inactive
CC(C)(CO)[C@@H](O)C(=O)NCCC(=O)O	inactive
OC[C@H]1O[C@@H](O[C@H]2[C@H](O)[C@@H](O)[C@H](O)O[C@@H]2CO)[C@H](O)[C@@H](O)[C@H]1O	inactive
COC(=O)c1ccc(OC)cc1	inactive
O=C(O)[C@@H]1CSCN1	inactive
CS(=O)(=O)c1ccc([C@@H](O)[C@@H](CF)NC(=O)C(Cl)Cl)cc1	inactive
CCCCCCOc1ccc(N)cc1	inactive
CCC(=O)c1ccc2c(c1)N(CCCN(C)C)c1ccccc1S2	active
CC(C)S	inactive
CC(C)CC(=O)OCc1ccccc1	inactive

---

Test: qHTS assay to identify small molecule antagonists of the constitutive androstane receptor (CAR) signaling pathway - cell viability counter screen (AID 1224837); further: on the % scale 0 is the no-effect control and ±100 the full control effect; nearly all actives have a fitted effect of over 45% in size
Details: HepG2-CYP2B6-hCAR viability, CellTiter-Fluor, 23 h, co-treated with 50 nM CITCO; series mostly up to 92.4 µM
Results filed as inconclusive are left out. Activity calls are given as the source filed them. The call rests on the fitted dose curve; in most records, active means well fitted cell-killing curve with a large enough effect in the repeat runs; inconclusive means weak or mixed curves, or effect the other way; inactive means flat fitted curve, though single readings scatter.

smilesNotation	activity change, negative = cytotoxicity
CCCCCCCCc1ccc(S(=O)(=O)O)cc1	inactive
Cc1cccc(C)c1NC(=O)CN1CCCCCC1	inactive
NS(=O)(=O)c1cc(-c2nn[nH]n2)c(NCc2cccs2)cc1Cl	inactive
CCCCCCn1c(=O)c2c(ncn2C)n(C)c1=O	inactive
CC(C)C(=O)OC/C=C/c1ccccc1	inactive
Cc1ccc(C)c(N)c1	inactive
Cc1c(N)cccc1N	inactive
O=c1oc2c(O)c(O)cc3c(=O)oc4c(O)c(O)cc1c4c23	9.67% [at 19 µM] (inactive)
CN1CCN(C2=Nc3ccccc3Oc3ccc(Cl)cc32)CC1	inactive
c1ccc(CN(CC2=NCCN2)c2ccccc2)cc1	inactive
CC(C)CC(=O)OCc1ccccc1	inactive
CC/C=C\CCOC(=O)CCCCC	inactive
Cc1ccsc1C(=CCCN1CCC[C@@H](C(=O)O)C1)c1sccc1C	inactive

---

Test: qHTS assay to identify small molecule antagonists of the estrogen related receptor signaling pathway with the pleiotropic PPARgamma coactivator (PGC) from Tox21 10K library - cell viability counter screen (AID 1224840); further: on the % scale 0 is the no-effect control and ±100 the full control effect; nearly all actives have a fitted effect of over 40% in size
Details: PGC/ERR reporter cells viability, CellTiter-Fluor, 17.5 h; series mostly up to 92.4 µM
Inconclusive results are not listed. Active and inactive are the calls of the source. Calls follow the shape of the dose curve; as a rule, active = well fitted cell-killing curve with a large enough effect in the repeat runs (not every such curve was filed as active); inconclusive = weak or mixed curves, or effect the other way; inactive = no such curve, though single readings can be large or run the other way.

molecule	viability change, negative = cytotoxic
O=C1CCC(C2CCCCC2)CC1	inactive
CCCCCCCCCCCCCCCCOP(=O)([O-])OCC[N+](C)(C)C	inactive
CCCCN1C[C@H](O)[C@@H](O)[C@H](O)[C@H]1CO	inactive
N#Cc1ccc(C(c2ccc(C#N)cc2)n2cncn2)cc1	inactive
CN1CCN(C2=Nc3cc(F)ccc3Cc3ccccc32)CC1	inactive
Cc1cc2c(s1)Nc1ccccc1N=C2N1CCN(C)CC1	inactive
CN(CC1(C)CCCO1)S(=O)(=O)c1ccc(Cl)c(S(N)(=O)=O)c1 (stereo not drawn)	inactive
CNCCC(Oc1ccccc1OC)c1ccccc1 (stereo not drawn)	inactive
CCc1cc2cc(OC)c(OC)cc2c(Cc2ccccc2)n1	inactive
CC1CN(c2ccccc2)NC1=O (stereo not drawn)	inactive
CCOC(=O)C1CC(=O)C(=C(O)C2CC2)C(=O)C1 (stereo not drawn)	inactive
O=C1CCN(c2ccccc2)N1	inactive
CO[Si](C)(C)OC	inactive
CCCCCCOc1ccc(N)cc1	inactive
CC(C)O	inactive
CCOc1ccc(NS(=O)(=O)c2ccc(N)cc2)nn1	inactive
O=c1oc2c(O)c(O)cc3c(=O)oc4c(O)c(O)cc1c4c23	-7.93% [at 19 µM] (inactive)
Cc1c[nH]c(=S)[nH]c1=O	inactive
CCCCCCCCCC/C=C/C#N	inactive
CC(C)C(=O)OCC(C)(C)C(O)C(C)C (stereo not drawn)	inactive
CC1=C2[C@H](/C=C(\C)C(=O)O)CC[C@@H](C)[C@H]2CC1	inactive
CS(=O)(=O)c1ccc([C@@H](O)[C@@H](CF)NC(=O)C(Cl)Cl)cc1	inactive
FC(F)(F)C(Cl)(Cl)Cl	inactive
CCOC(=O)C(Br)c1ccccc1 (stereo not drawn)	inactive
C[C@]12C(=O)OC(=O)[C@H]1[C@H]1C=C[C@@H]2C1	inactive
CC(C)OC(C)C	inactive
CCN(CC)CCOc1ccc(Cc2ccccc2)cc1	inactive
COc1ccccc1OCC(O)COC(N)=O (stereo not drawn)	inactive

---

Test: qHTS assay to identify small molecule agonists of the retinoic acid receptor (RAR) signaling pathway (AID 1159553); on activation: on the % scale 0 is the no-effect control and ±100 the full control effect
Conditions: C3RL4 RARE luciferase reporter, agonist, 6 h; series mostly up to 73.3 µM
Text: National Center for Advancing Translational Sciences [NCATS] NIH Chemical Genomics Center [NCGC] U.S. Environmental Protection Agency [EPA] National Institutes of Environmental Health Sciences [NIEHS] National Toxicology Program [NTP] […]
Records with an inconclusive call do not appear. The source made the active and inactive calls. Calls come from the whole dose curve; as a rule, active = well fitted activation curve with a large enough effect in the repeat runs; inconclusive = weak or mixed curves, or effect the other way; inactive = no such curve, though single readings can be large or run the other way.
Possible outcomes: Y (active), N (inactive)

compound	category
CCN[C@H]1CN(CCCOC)S(=O)(=O)c2sc(S(N)(=O)=O)cc21	N
CCCOCCC	N
Cc1ccccc1C(=O)Nc1ccc(C(=O)N2CCCC(O)c3cc(Cl)ccc32)c(C)c1 (stereo not drawn)	N
CCCCCCOc1ccc(N)cc1	Y
CCCN(CCC)C(=O)C(CCC(=O)O)NC(=O)c1ccccc1 (stereo not drawn)	N
C=Cc1ccccc1	N
CC(=O)O[C@H]1CC[C@@]2(C)C(=CC[C@@H]3[C@@H]2CC[C@]2(C)C(C(C)=O)=CC[C@@H]32)C1	N
O=c1oc2c(O)c(O)cc3c(=O)oc4c(O)c(O)cc1c4c23	N
CCOc1ccc(NC(N)=O)cc1	N
COC(=O)c1ccc(OC)cc1	N
CCCCCCCOC(=O)CCC	N
O=C(CCCl)NCc1ccccc1	N
O=C(Cl)c1cccc([N+](=O)[O-])c1	N

---

Experiment: qHTS assay to identify small molecule antagonists of the sonic hedgehog signaling (Shh) pathway (AID 1259369); further: nearly all actives have a fitted effect of over 45% in size
Settings: NIH/3T3 Gli1-Luc reporter, Shh antagonist, luminescence 24 h; series mostly up to 92.4 µM
Records with an inconclusive call do not appear. Calls of active or inactive are those of the source. The call rests on the fitted dose curve.
Classes used: True = active, False = inactive

molecule	category
CCOc1ccc(NS(=O)(=O)c2ccc(N)cc2)nn1	False
Cc1ccc([N+](=O)[O-])c(N)c1	True
CCCCCOc1ccc(C2SC(=O)NC2=O)cc1OCC (configuration not stated)	False
CCCOCCC	False
CCCS(=O)c1ccc2nc(NC(=O)OC)[nH]c2c1 (configuration not stated)	False
COc1ccc2nc(NC(=O)Nc3ccccc3)sc2c1	False
Cc1cc(NS(=O)(=O)c2ccc(N)cc2)nc(C)n1	False
OC[C@H]1O[C@@H](O[C@H]2[C@H](O)[C@@H](O)[C@H](O)O[C@@H]2CO)[C@H](O)[C@@H](O)[C@H]1O	False
O=CCCc1ccccc1	False
OCCN(CCO)c1ccccc1	False
FC(F)(F)C(F)(F)C(F)(F)C(F)(F)C(F)(F)C(F)(F)C(F)(F)C(F)(F)Br	False
CC(C)(CO)[C@@H](O)C(=O)NCCC(=O)O	False

Entry source: PubChem BioAssay (Tox21)
